Test system: DeltatarO mutant
Assay: S. aureus survival, RN4220 and DeltatarO strains – OD600, teichoic acid synthesis inhibitors, primary screen (AID 463173)
Conditions: S. aureus RN4220 wild type/DeltatarO growth, OD600, 18 h, stronger effect = lower value, screened at 18.75 µg/mL (by protocol)
The campaign covered roughly 52,000 compounds. About 4,300 (8.3%) were called active. Many of the other results were omitted from the sample, so actives are more common in it than they were.
Criterion: survival strictly less than 70%. Met: Satisfied. Not met: Not satisfied.

[
  {
    "COMPOUND": "CCOC(=O)c1cc(NC(=O)c2ccc(C)cc2)c(=O)n2c1oc1ccccc12",
    "TESTED_TARGET": "DeltatarO mutant",
    "QUALITATIVE_LABEL": "Satisfied"
  },
  {
    "COMPOUND": "Cc1ccccc1-c1nnc(CN2CCN(c3cccc(C)c3C)CC2)o1",
    "TESTED_TARGET": "DeltatarO mutant",
    "QUALITATIVE_LABEL": "Satisfied"
  },
  {
    "COMPOUND": "Cn1cc(S(=O)(=O)N2CCCCCC2)cc1C(=O)Nc1ccc(Cl)c(C(F)(F)F)c1",
    "TESTED_TARGET": "DeltatarO mutant",
    "QUALITATIVE_LABEL": "Satisfied"
  },
  {
    "COMPOUND": "Cc1cccc(N2CCN(Cc3nnc(-c4ccccc4C)o3)CC2C)c1 (stereo not given)",
    "TESTED_TARGET": "DeltatarO mutant",
    "QUALITATIVE_LABEL": "Satisfied"
  },
  {
    "COMPOUND": "O=C(Cn1ccc2cc(S(=O)(=O)N3CCCCCC3)ccc21)NCc1ccccc1Cl",
    "TESTED_TARGET": "DeltatarO mutant",
    "QUALITATIVE_LABEL": "Not satisfied"
  },
  {
    "COMPOUND": "CCC(CC)C(=O)Nc1ccc(-c2cn3cccnc3n2)cc1",
    "TESTED_TARGET": "DeltatarO mutant",
    "QUALITATIVE_LABEL": "Not satisfied"
  },
  {
    "COMPOUND": "CCOC(=O)c1cc(NC(=O)c2ccc(Cl)cc2)c(=O)n2c1oc1ccccc12",
    "TESTED_TARGET": "DeltatarO mutant",
    "QUALITATIVE_LABEL": "Satisfied"
  },
  {
    "COMPOUND": "O=C(Cn1ccc2cc(S(=O)(=O)N3CCCCCC3)ccc21)NCCc1ccccc1Cl",
    "TESTED_TARGET": "DeltatarO mutant",
    "QUALITATIVE_LABEL": "Not satisfied"
  },
  {
    "COMPOUND": "Cc1ccccc1-c1nnc(CN2CCN(c3cc(Cl)ccc3C)CC2)o1",
    "TESTED_TARGET": "DeltatarO mutant",
    "QUALITATIVE_LABEL": "Not satisfied"
  },
  {
    "COMPOUND": "Cc1ccccc1-c1nnc(CN2CCN(c3ccccn3)CC2)o1",
    "TESTED_TARGET": "DeltatarO mutant",
    "QUALITATIVE_LABEL": "Not satisfied"
  }
]
